Test: qHTS Assay for Lipid Storage Modulators: COS7 Assay against Probe and Analogs
Details: COS7 lipid droplet area, BODIPY imaging, 18 h; cells loaded with 400 µM oleic acid
Records with an inconclusive call do not appear.
measurement_kind: max response (%)

* O=C(Nc1cccc2nn(-c3ccc(F)cc3)cc12)c1ccccn1 | 9.12
* CCNC(=O)C1CCN(C(=O)C(C)(C)NC(=O)Nc2ccccc2Cl)CC1 | -3.83
* CCOC(=O)C1CCN(C(=O)C(C)(C)NC(=O)Nc2ccc(CN3CCOCC3)cc2)CC1 | -3.75
* CCOC(=O)C1CCN(C(=O)C(C)(C)NC(=O)Nc2ccc(C#N)cc2)CC1 | -15.2
* CCOc1ccc(CCNC(=O)C2CCCCC2)cc1OCC | -8.52

----------
Experiment: qHTS Assay for Lipid Storage Modulators: COS7 Assay against Probe and Analogs
Conditions: COS7 lipid droplet area, BODIPY imaging, 18 h; cells loaded with 400 µM oleic acid
Inconclusive results are not listed.
measurement_kind: max response (%)

* O=C(NC1CCCc2c1cnn2-c1ccc(F)cc1F)c1ccc(C2(C(F)(F)F)N=N2)cc1 (stereo unspecified) | 3.15
* O=C(CCCCCCC(=O)Nc1ccccc1)NO | -18.2
* CCOC(=O)C1CCN(C(=O)C2(NC(=O)Nc3ccccc3Cl)CCCCC2)CC1 | -103
* CCOc1ccc(CCNC(=O)CN(C)C)cc1OCC | -3.2
* CCOC(=O)C1CCN(C(=O)C2(NC(=O)Nc3ccccc3Cl)CC2)CC1 | -17.2
* O=C(NC1CCCc2c1cnn2-c1ccc(F)cc1F)C1CCCCC1 (stereo unspecified) | 3.71

----------
Assay: qHTS Assay for Lipid Storage Modulators: COS7 Assay against Probe and Analogs
Conditions: COS7 lipid droplet area, BODIPY imaging, 18 h; cells loaded with 400 µM oleic acid
Results filed as inconclusive are left out. The source made the active and inactive calls. Calls come from the whole dose curve; as a rule, active = well fitted inhibition curve with a large enough effect; inconclusive = small, poorly fitted or top-dose-only effect; inactive = no such curve, though single readings can be large or run the other way.
As shown below, each of these molecules has a reported Potency value.
measurement_kind: Potency

* CCOc1cc(CCNC(=O)c2cc3sccc3n2Cc2ccccc2)cc(F)c1OCC | 2.35 µM (active)
* CCOc1ccc(CCNC(=O)c2cc3ccccc3n2Cc2cc(C)cc(C)n2)cc1OCC | 1.48 µM (active)
* CCOc1ccc(CCNC(=O)c2cc3sccc3n2C(C)C)cc1OCC | 1.18 µM (active)

----------
Assay: qHTS Assay for Lipid Storage Modulators: COS7 Assay against Probe and Analogs
Settings: COS7 lipid droplet area, BODIPY imaging, 18 h; cells loaded with 400 µM oleic acid
Results filed as inconclusive are left out. Activity calls are given as the source filed them. Calls come from the whole dose curve; as a rule, active = well fitted inhibition curve with a large enough effect; inconclusive = small, poorly fitted or top-dose-only effect; inactive = no such curve, though single readings can be large or run the other way.
measurement_kind: max response

• CCn1c(C(=O)NCc2ccc(OC)c(OC)c2)cc2sccc21 = 0.0567% (inactive)
• CCOc1ccc(CCNC(=O)Cc2ccccc2)cc1OCC = -10.6% (inactive)
• CN(C)CC(=O)NC1CCCc2c1cnn2-c1ccc(F)cc1F (configuration not stated) = 19.8% (inactive)
• O=C(Cc1ccccc1)NC1CCCc2c1cnn2-c1ccc(F)cc1F (configuration not stated) = 1.55% (inactive)
• O=C(NCCc1ccc(O)c(O)c1)c1cc2sccc2n1Cc1ccccc1 = 20.9% (inactive)
• O=C(O)c1cccc(-c2noc(-c3ccccc3F)n2)c1 = -6.12% (inactive)
• O=C(NC1CCCc2c1cnn2-c1ccc(F)cc1F)C1CCCCN1 (configuration not stated) = -10.9% (inactive)
